binding relative to P54AR4-83v2 parent by entry:
SYSTEM_TESTED: EGFR (form used in the assay not stated) (human, UniProt P00533 25-645, limits assumed)
ASSAY_METHOD_TEXT: ELISA, NEM conjugate, 10 nM
Hey, just the number and the unit after it is fine.

# example entries with known answers
>>> measured("P54AR4-83v2 D15C, NEM conjugate (designed binder, not shown: small tags and cut ends, N-ethyl maleimide (NEM) on Cys 15) LPAPKNLVVSEVTECSARLSWDDPWAFYESFLIQYQESEKVGEAIVLTVPGSERSYDLTGLKPGTEYTVSIYGVHNVYKDTNMRGLPLSAIFTT")
"0.98 ratio"
>>> measured("P54AR4-83v2 E11C, NEM conjugate (designed binder, not shown: small tags and cut ends, N-ethyl maleimide (NEM) on Cys 11) LPAPKNLVVSCVTEDSARLSWDDPWAFYESFLIQYQESEKVGEAIVLTVPGSERSYDLTGLKPGTEYTVSIYGVHNVYKDTNMRGLPLSAIFTT")
"0.9 ratio"
>>> measured("P54AR4-83v2 Q34C, NEM conjugate (designed binder, not shown: small tags and cut ends, N-ethyl maleimide (NEM) on Cys 34) LPAPKNLVVSEVTEDSARLSWDDPWAFYESFLICYQESEKVGEAIVLTVPGSERSYDLTGLKPGTEYTVSIYGVHNVYKDTNMRGLPLSAIFTT")
"0.89 ratio"

response.value for P54AR4-83v2 T68C, NEM conjugate (designed binder, not shown: small tags and cut ends, N-ethyl maleimide (NEM) on Cys 68, not used) LPAPKNLVVSEVTEDSARLSWDDPWAFYESFLIQYQESEKVGEAIVLTVPGSERSYDLTGLKPGTEYCVSIYGVHNVYKDTNMRGLPLSAIFTT (field: binding relative to P54AR4-83v2 parent) = 0.83 ratio
